System: barnyardgrass (Echinochloa crus-galli)
Experiment: Test G Pre-Emergence Protocol
Format: in vivo
Conditions: Echinochloa crus-galli, pre-emergence, 312 h, 15.625 g ai/ha, evaluated after 13 days, read-out: Barnyardgrass damage rating (100=total damage to plant; 0=no damage to plant)
Assign class by pest or weed control at 15.625 g/ha: not lower than 20% means criterion met; lower than 20% means criterion not met.

molecule="CCc1cc([C@@H]2CN(C)C(=O)[C@H]2C(=O)Nc2cccc(F)c2C)ccc1Cl (racemic)" assayed_target="barnyardgrass (Echinochloa crus-galli)" classification="criterion not met"

Challenge: Kindly determine if pest or weed control at 15.625 g/ha recorded for CN1C[C@@H](c2cccc(I)c2)[C@H](C(=O)Nc2cccc(F)c2F)C1=O (racemic) is above or exactly 20%.
Response given: criterion met

Challenge: Another: CN1C[C@H](c2ccc(C(F)(F)F)cc2)[C@@H](C(=O)Nc2ccc(C(F)(F)F)cn2)C1=O (racemic)
Response given: criterion not met

Challenge: Another: Cc1cc([C@H]2CN(C)C(=O)[C@@H]2C(=O)Nc2cccc(F)n2)cc(C(F)(F)F)c1 (racemic)
Response given: criterion met

Challenge: Another: CN1C[C@H](c2ccc(C(F)(F)F)cc2)[C@@H](C(=O)Nc2cccc(F)[n+]2[O-])C1=O (racemic)
Response given: criterion not met

Challenge: Another: CN1C[C@H](c2cccc(C(F)(F)F)c2)[C@@H](C(=O)Nc2cnccc2F)C1=O (racemic)
Response given: criterion not met

Challenge: Another: CCOc1c(Cl)cc(C2CN(C)C(=O)C2C(=O)Nc2cccc(F)c2F)cc1OC (stereo not drawn)
Response given: criterion not met

Challenge: Another: `CON1C[C@H](c2ccc(F)c(F)c2)[C@@H](C(=O)Nc2ccc(F)c(F)c2F)C1=O`
Response given: criterion met
